Tested on: HL-60
Assay: Cytotoxicity against human HL-60 cells assessed as reduction in cell viability measured for 24 hrs by MTT assay
Assay type: functional, cell-based
Conditions: HL-60, 24 h
measured_property: IC50 (µM)
Expressed in µM, but write only the number.

Returns the measured IC50 for the input compound. Input: `CC1(C)C=Cc2c(ccc3c2NC(=O)C(C)(C)/C=C\N2C(=O)C4=CCCN4C(=O)[C@@H]2CC3=O)O1`
8.7

---

Tested on: Bel-7402
Assay: Cytotoxicity against human Bel-7402 cells assessed as reduction in cell viability measured for 48 hrs by MTT assay
Assay type: functional, cell-based
Details: Bel-7402, 48 h
Measured IC50 of individual entries
Entry format: amount then unit.

Consider the worked cases shown below.
smiles_text | test_system | IC50
COc1ccc2c3c(n(CC=C(C)C)c2c1)[C@H](C=C(C)C)N1C(=O)[C@@H]2CCCN2C(=O)[C@]1(O)C3=O | Bel-7402 | 25.6 µM
C=C(C)[C@H](O)Cn1c2c(c3ccc(OC)cc31)[C@H](O)[C@@]1(O)C(=O)N3CCC[C@H]3C(=O)N1[C@H]2C=C(C)C | Bel-7402 | 10.8 µM

Returns the measured IC50 for the input compound. Input: `COc1ccc2c(c1)N(/C=C/C(C)(C)OO)C(=O)[C@]21[C@H](C=C(C)C)N2C(=O)[C@@H]3CCCN3C(=O)[C@]2(O)[C@H]1O`
98.4 µM

---

Measured pIC50 of individual entries
System: HCT-116
Assay: Cytotoxicity against human HCT-116 cells assessed as reduction in cell viability incubated for 48 hrs by Celltiter-Glo assay
Type: functional, cell-based
Details: HCT-116, 48 h
// scale note: pIC50 = -log10(conc_M); give the bare number

molecule | pIC50
CCCCCCCCCC(CC(=O)NCCCN)N1CC(=O)N(O)C(Cc2ccccc2)C1=O (configuration not stated) | 4.22

Then this molecule:
Returns the measured pIC50 for the input molecule. Input: `CCCCCCCCC[C@@H](CC(=O)NCCCCN)N1CC(=O)N(O)[C@H](Cc2ccccc2)C1=O`
4.40

---

Assay: Cytotoxicity against human BEAS-2B cells incubated for 72 hrs measured by MTT assay
Type: toxicity, cell-based
measured_property: IC50 at 72 h (µM)
Expressed in µM, but write only the number.

Returns the measured IC50 at 72 h for the input compound. Input: COC1=C(C)C(=O)C2=C(C1=O)[C@@H]1[C@@H]3CC4=C(C(=O)C(OC)=C(C)C4=O)[C@H](CO)N3[C@@H](C#N)[C@H](C2)N1C [JOURNNAMYCIN A]
14.8

---

Tested on: DU-145
Assay: Cytotoxicity against human DU-145 cells assessed as cell growth inhibition measured after 48 hrs by MTT assay
Format: functional, cell-based
Conditions: DU-145, 48 h
measured_property: pIC50
// scale note: pIC50 = -log10(conc_M); give the bare number

Consider the worked cases shown below.
molecule | value_measured
C/C=C(/C)C(=O)OC[C@H]1C2=C(C[C@H]3[C@H]4C5=C(C[C@@H]([C@H](C#N)N13)N4C)C(=O)C(C)=C(OC)C5=O)C(=O)C(C)=C(OC)C2=O | 7.72
COC1=C(C)C(=O)C2=C(C1=O)[C@@H]1[C@@H]3CC4=C(C(=O)C(OC)=C(C)C4=O)[C@H](CO)N3[C@@H](C#N)[C@H](C2)N1C | 7.54
COC1=C(C)C(=O)C2=C(C1=O)[C@H]1[C@@H]3CC4=C(C(=O)C(OC)=C(C)C4=O)[C@H](COC(C)=O)N3[C@@H](O)[C@@H](C2)N1C | 9.31
COc1cc2c(cc1O)CCNC21CS[C@@H]2c3c(OC(C)=O)c(C)c4c(c3[C@H](COC1=O)N1[C@@H]2[C@H]2c3c(cc(C)c(OC)c3O)C[C@@H]([C@@H]1C#N)N2C)OCO4 (stereo not given in full) | 9.18

Then this molecule:
Returns the measured pIC50 for the input molecule. Input: `COC1=C(C)C(=O)C2=C(C1=O)[C@H](CO)N1[C@@H](C#N)[C@@H]3[C@@H](O)c4c(O)c(C)c(OC)c(O)c4[C@H]([C@@H]1C2)N3C`
6.35

Source: ChEMBL document CHEMBL5500324
